The measured values listed here are drawn from patent US20070275923A1.

# Test system: Mouse tail fibroblast (MTF) cells
# protocol description: in vitro
# recorded conditions: peptide concentration 10 μM, 200 nM siRNA; 100% represents 100% viability
Mal = not defined here
reported endpoint: % Cell Viability (%)
Could you give me the number in %? Just the number is fine.

PEG (2 KDa)-Mal-(Lys-His)10-amide ({PEG 2 kDa-Mal}-KHKHKHKHKHKHKHKHKHKH-NH2; reading uncertain) [PN939]	99.7
PEG (10 KDa)-Mal-(Lys)20-amide ({PEG 10 kDa-Mal}-KKKKKKKKKKKKKKKKKKKK-NH2; reading uncertain) [PN928]	98

Then this substance:
### Prompt Form entry - test system: Mouse tail fibroblast (MTF) cells; read-out: % Cell Viability; substance: PEG (10 KDa)-Mal-Trp-(Lys)30-amide (WKKKKKKKKKKKKKKKKKKKKKKKKKKKKKK; PEG 10 kDa maleimide; C-terminal amide) [PN986]
### Response 97.2
